B1: PhoQ; a variant is named by its letters at X, in order, P23837 (parent)
chain: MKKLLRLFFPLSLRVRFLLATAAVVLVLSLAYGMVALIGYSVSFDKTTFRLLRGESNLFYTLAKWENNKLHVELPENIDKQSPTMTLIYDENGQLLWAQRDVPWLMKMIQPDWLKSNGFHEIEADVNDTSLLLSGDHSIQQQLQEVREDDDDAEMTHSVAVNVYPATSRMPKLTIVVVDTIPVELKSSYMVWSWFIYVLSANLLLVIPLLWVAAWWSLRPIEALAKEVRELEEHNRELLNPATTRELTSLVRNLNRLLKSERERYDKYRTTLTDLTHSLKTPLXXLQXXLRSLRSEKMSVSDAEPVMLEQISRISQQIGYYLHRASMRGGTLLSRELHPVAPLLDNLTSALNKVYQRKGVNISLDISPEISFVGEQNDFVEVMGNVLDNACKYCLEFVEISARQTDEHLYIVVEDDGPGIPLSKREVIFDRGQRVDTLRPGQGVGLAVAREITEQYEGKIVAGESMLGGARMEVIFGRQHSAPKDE

Variants of: B1
RUN_DESCRIPTION: enrichment ratio after two sorts for PhoP signalling (ratio (wild type AVST 3.29)); higher = more functional
EXPERIMENTAL_CONTEXT: with PhoP (E. coli)
Whole data set: some 140,000 sequences, median “enrichment ratio after two sorts for PhoP signalling” near 0, cut for the highest 2% near 11. This is one part of a sample in which the highest values are shown more often than they occur.
ENDPOINT_LABEL: enrichment ratio

These solved cases illustrate the format of a correct answer.
Query: Which enrichment ratio is listed for QEIH ?
Result: ≤ 0.25

Query: Another variant to check: VHCG
Result: ≤ 0.25

Query: Another variant to check: TMPI
Result: ≤ 0.25

Query: Another variant to check: YYDN
Result: ≤ 0.25

Query: Another variant to check: ATCH
Result: ≤ 0.25

Query: Another variant to check: WFPG
Result: ≤ 0.25

More entries:
Query: Which enrichment ratio is listed for YDQD ?
Result: ≤ 0.25

Query: Another variant to check: PCHL
Result: ≤ 0.25

Query: Another variant to check: MNSK
Result: ≤ 0.25

Query: Another variant to check: RQWC
Result: ≤ 0.25

Query: Another variant to check: TMWM
Result: ≤ 0.25

Query: Another variant to check: NVYD
Result: ≤ 0.25

Query: Another variant to check: DPLF
Result: ≤ 0.25

Query: Another variant to check: KLYR
Result: ≤ 0.25

Query: Another variant to check: HPGH
Result: ≤ 0.25
